Conditions: in isopropanol, 313.15 K
READOUT_TYPE: solubility (mole fraction)

{"CHEMICAL_STRUCTURE": "O=C1CCCCCCCCCCC1", "NUMERIC_VALUE": 0.55}

====

Details: in 1,2-dichloroethane, 278.15 K

{"CHEMICAL_STRUCTURE": "O=C1CCCCCCCCCCC1", "solubility (mole fraction)": 0.366}

====

Settings: in isopropanol, 288.15 K
READOUT_TYPE: solubility (mole fraction)

{"CHEMICAL_STRUCTURE": "O=C1CCCCCCCCCCC1", "READOUT_TYPE": "solubility (mole fraction)", "RESULT": 0.155}

====

Settings: in acetonitrile, 293.15 K

{"CHEMICAL_STRUCTURE": "O=C1CCCCCCCCCCC1", "solubility (mole fraction)": 0.16}

====

Conditions: in toluene, 293.15 K
READOUT_TYPE: solubility (mole fraction)

{"CHEMICAL_STRUCTURE": "O=C1CCCCCCCCCCC1", "READOUT_TYPE": "solubility (mole fraction)", "NUMERIC_VALUE": 0.454}

====

Settings: in isobutanol, 303.15 K
READOUT_TYPE: solubility (mole fraction)

{"CHEMICAL_STRUCTURE": "O=C1CCCCCCCCCCC1", "NUMERIC_VALUE": 0.331}

====

Conditions: in n-propanol, 303.15 K
READOUT_TYPE: solubility (mole fraction)

{"CHEMICAL_STRUCTURE": "O=C1CCCCCCCCCCC1", "READOUT_TYPE": "solubility (mole fraction)", "NUMERIC_VALUE": 0.37}

====

Conditions: in acetone, 308.15 K

{"CHEMICAL_STRUCTURE": "O=C1CCCCCCCCCCC1", "solubility (mole fraction)": 0.517}

====

Conditions: in ethanol, 288.15 K

{"CHEMICAL_STRUCTURE": "O=C1CCCCCCCCCCC1", "solubility (mole fraction)": 0.0949}

====

Details: in acetonitrile, 298.15 K
READOUT_TYPE: solubility (mole fraction)

{"CHEMICAL_STRUCTURE": "O=C1CCCCCCCCCCC1", "READOUT_TYPE": "solubility (mole fraction)", "RESULT": 0.225}

====

Settings: in n-butanol, 288.15 K

{"CHEMICAL_STRUCTURE": "O=C1CCCCCCCCCCC1", "solubility (mole fraction)": 0.164}

====

Conditions: in acetonitrile, 288.15 K
READOUT_TYPE: solubility (mole fraction)

{"CHEMICAL_STRUCTURE": "O=C1CCCCCCCCCCC1", "READOUT_TYPE": "solubility (mole fraction)", "NUMERIC_VALUE": 0.104}

====

Conditions: in n-propanol, 313.15 K

{"CHEMICAL_STRUCTURE": "O=C1CCCCCCCCCCC1", "solubility (mole fraction)": 0.567}

====

Details: in methanol, 298.15 K
READOUT_TYPE: solubility (mole fraction)

{"CHEMICAL_STRUCTURE": "O=C1CCCCCCCCCCC1", "NUMERIC_VALUE": 0.108}

====

Conditions: in acetonitrile, 278.15 K
READOUT_TYPE: solubility (mole fraction)

{"CHEMICAL_STRUCTURE": "O=C1CCCCCCCCCCC1", "NUMERIC_VALUE": 0.0485}
